Values from patent US20240132578A1

Target or test system: HIV-1 Env of isolate MGRM-C-025 (subtype C) (HIV-1)
Protocol text: cell-based or functional assay
I'd appreciate it if you could supply IC50 (µg/mL), pseudovirus neutralization values for the items below.
Numbers only, in µg/mL.

Examples with answers:
PGT-125 (antibody, V domains shown) VH: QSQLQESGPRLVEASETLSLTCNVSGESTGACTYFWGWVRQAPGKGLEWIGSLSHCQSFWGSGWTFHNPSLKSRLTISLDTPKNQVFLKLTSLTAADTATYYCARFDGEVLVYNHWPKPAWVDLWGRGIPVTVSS VL: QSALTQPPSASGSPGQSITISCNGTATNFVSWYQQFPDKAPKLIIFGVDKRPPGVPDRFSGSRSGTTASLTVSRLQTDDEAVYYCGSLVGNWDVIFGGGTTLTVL; 42.5
PGT-123 (antibody, V domains shown) VH: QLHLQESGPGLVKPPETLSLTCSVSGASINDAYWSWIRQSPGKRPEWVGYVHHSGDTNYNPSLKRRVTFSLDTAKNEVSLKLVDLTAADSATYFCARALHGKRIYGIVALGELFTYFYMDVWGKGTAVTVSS VL: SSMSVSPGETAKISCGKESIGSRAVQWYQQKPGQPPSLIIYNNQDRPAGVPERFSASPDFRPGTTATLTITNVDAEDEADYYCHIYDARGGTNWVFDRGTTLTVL; 13.3

Here's the next entry for you.
What value of IC50 (µg/mL), pseudovirus neutralization has been reported for the following binder? PGT-126 (antibody, V domains shown) VH: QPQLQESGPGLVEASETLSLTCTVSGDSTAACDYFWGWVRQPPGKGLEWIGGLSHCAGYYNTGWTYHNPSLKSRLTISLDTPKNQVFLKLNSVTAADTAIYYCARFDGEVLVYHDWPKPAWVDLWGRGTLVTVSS VL: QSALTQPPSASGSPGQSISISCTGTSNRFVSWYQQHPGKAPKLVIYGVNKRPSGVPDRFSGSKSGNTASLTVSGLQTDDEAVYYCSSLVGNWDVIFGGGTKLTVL
0.786
